test system: Hepatocyte; assay: Intrinsic clearance in human hepatocytes assessed per million cells; format: ADME, cell-based
readout-kind: hepatocyte intrinsic clearance (µL/min/million cells)

Recorded results for 3 compounds are shown here.
- smiles-text: "C[C@H](c1ccc(F)cc1)N(Cc1cccc(C(=O)O)c1)C(=O)c1cc2ccccn2n1"
  test-target: "Hepatocyte"
  readout-kind: "hepatocyte intrinsic clearance"
  unit-string: "µL/min/million cells"
  quantitative-readout: 23
- smiles-text: "C[C@H](c1cccc(Cl)c1)N(Cc1cccc(C(=O)O)c1)C(=O)c1cnc2ccccc2c1"
  test-target: "Hepatocyte"
  readout-kind: "hepatocyte intrinsic clearance"
  unit-string: "µL/min/million cells"
  quantitative-readout: 45
- smiles-text: "CC[C@H](c1ccc(F)cc1)N(Cc1cccc(C(=O)O)c1)C(=O)c1cnc2ccccc2c1"
  test-target: "Hepatocyte"
  readout-kind: "hepatocyte intrinsic clearance"
  unit-string: "µL/min/million cells"
  quantitative-readout: 28

(1) C[C@H](c1ccc(F)cc1F)N(Cc1cccc(C(=O)O)c1)C(=O)c1cc2ccccn2n1
(2) C[C@H](c1ccc(F)cc1)N(Cc1cccc(C(=O)O)c1)C(=O)c1cc2ccccc2cn1
(3) CC[C@H](c1ccc(F)cc1F)N(Cc1cccc(C(=O)O)c1)C(=O)c1cc2ccccn2n1
Ask: List from greatest to least hepatocyte intrinsic clearance. Please list the labels according to the requested order.
Reply: 3, 1, 2
(3: 48 µL/min/million cells, 1: 31 µL/min/million cells, 2: 21 µL/min/million cells)
